- Species on record: Bos taurus
- EXPERIMENTAL_DETAILS: Inhibition of bovine trypsin assessed as protease activity using D-CHA-AR-AMC as substrate at 1 uM by fluorescence assay relative to control
- Set-up: scale not given: the % may be the effect or the level left
EXPERIMENTAL_READOUT: Activity (%)

N=C(N)Nc1ccc(C(=O)Oc2ccc(CC(=O)N[C@@H](CC(=O)O)C(=O)O)n3ncnc23)cc1 = 100

(1) N=C(N)Nc1ccc(C(=O)Oc2ccc(CC(=O)O)n3ncnc23)cc1Cl
(2) N=C(N)Nc1ccc(C(=O)Oc2ccc(CC(=O)NC(CC(=O)O)(CC(=O)O)CC(=O)O)n3ncnc23)cc1
Query :: Lower value for measured Activity? Options: 1 , 2 Field: selected label. Fill in the label of the entry you choose.
Result :: 1
